Molecular target: Cyclin-dependent kinase 4/cyclin D1 (Homo sapiens)
Test: Inhibitory activity against Cyclin D1-cyclin-dependent kinase 4 by measuring the phosphorylation of RbING
pIC50: −log10 of the molar value.
Observation type: pIC50

Sample answers from the record:
[[record]]
molecule = "O=C1NC(=O)c2c1c1c3c(ccc1c1[nH]c4ccccc4c21)CCCC3"
tgt = "Cyclin-dependent kinase 4/cyclin D1 (Homo sapiens)"
reading = 6.39

[[record]]
molecule = "O=C1NCc2c1c1c3ccccc3[nH]c1c1[nH]c3ccccc3c21 [STAUROSPORINONE]"
tgt = "Cyclin-dependent kinase 4/cyclin D1 (Homo sapiens)"
reading = 6.08

[[record]]
molecule = "O=C1NC(=O)c2c1c1sccc1c1[nH]c3ccccc3c21"
tgt = "Cyclin-dependent kinase 4/cyclin D1 (Homo sapiens)"
reading = 6.82

[[record]]
molecule = "O=C1NC(=O)c2c1c1ncccc1c1[nH]c3ccccc3c21"
tgt = "Cyclin-dependent kinase 4/cyclin D1 (Homo sapiens)"
reading = 6.74

[[record]]
molecule = "O=C1NC(=O)c2c1c1ccccc1c1[nH]c3ccccc3c21"
tgt = "Cyclin-dependent kinase 4/cyclin D1 (Homo sapiens)"
reading = 6.59


1. O=C1NC(=O)c2c1c1ccncc1c1[nH]c3ccccc3c21
2. O=C1NC(=O)c2c1c1c3ccc[nH]c-3nc1c1[nH]c3ccccc3c21
3. O=C1NC(=O)c2c1c1[nH]cnc1c1[nH]c3ccccc3c21 [GRANULATIMIDE]
4. O=C1NC(=O)c2c1c1ccc3ccccc3c1c1[nH]c3ccccc3c21
# sort list by recorded pIC50, greatest to least Reply format: the labels, ordered as requested.
2, 4, 3, 1
(2: 6.60, 4: 6.37, 3: 6.13, 1: 5.74)

* * *

Biological target: Protein kinase C gamma type (Homo sapiens, UniProt P05129)
Observation type: pIC50
Keep in mind that pIC50 stands for -log10 of concentration in molar terms.

Note to self: pIC50 of O=C1NC(=O)c2c1c1c3ccccc3ccc1c1[nH]c3ccccc3c21 with Protein kinase C gamma type (Homo sapiens, UniProt P05129) was 4.25

* * *

Target: Protein kinase C beta type (Homo sapiens)
Sequence (P05771 whole entry): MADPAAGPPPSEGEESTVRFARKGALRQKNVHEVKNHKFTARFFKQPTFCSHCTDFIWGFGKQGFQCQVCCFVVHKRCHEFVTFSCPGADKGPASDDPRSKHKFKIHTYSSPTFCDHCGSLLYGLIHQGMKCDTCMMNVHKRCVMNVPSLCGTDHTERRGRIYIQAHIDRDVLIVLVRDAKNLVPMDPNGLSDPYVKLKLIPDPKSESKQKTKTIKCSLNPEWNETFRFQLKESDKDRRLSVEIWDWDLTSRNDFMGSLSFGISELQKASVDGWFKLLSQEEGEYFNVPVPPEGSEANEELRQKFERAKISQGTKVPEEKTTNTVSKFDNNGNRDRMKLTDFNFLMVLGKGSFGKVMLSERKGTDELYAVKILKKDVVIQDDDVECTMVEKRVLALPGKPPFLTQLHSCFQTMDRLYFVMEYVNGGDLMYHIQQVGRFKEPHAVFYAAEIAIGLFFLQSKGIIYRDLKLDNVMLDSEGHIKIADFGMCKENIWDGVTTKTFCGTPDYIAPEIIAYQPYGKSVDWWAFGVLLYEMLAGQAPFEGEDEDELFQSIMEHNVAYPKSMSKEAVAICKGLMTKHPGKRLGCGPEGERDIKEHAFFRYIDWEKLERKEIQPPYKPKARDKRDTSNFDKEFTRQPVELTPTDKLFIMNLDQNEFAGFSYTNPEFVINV
Observation type: IC50 (µM)
All answers are understood in µM, so give the number only.

Note to self: IC50 of O=C1NC(=O)c2c1c1c3ccccc3ccc1c1[nH]c3ccccc3c21 with Protein kinase C beta type (Homo sapiens) was 9

* * *

Molecular target: Protein kinase C alpha type (Homo sapiens)
Observation type: IC50 (µM)
All answers are understood in µM, so give the number only.

Note to self: IC50 of O=C1NC(=O)c2c1c1c3ccccc3ccc1c1[nH]c3ccccc3c21 with Protein kinase C alpha type (Homo sapiens) was 52.8

* * *

Target: Cyclin-dependent kinase 4/cyclin D1 (Homo sapiens, UniProt P11802)
Sequence (P11802 whole entry): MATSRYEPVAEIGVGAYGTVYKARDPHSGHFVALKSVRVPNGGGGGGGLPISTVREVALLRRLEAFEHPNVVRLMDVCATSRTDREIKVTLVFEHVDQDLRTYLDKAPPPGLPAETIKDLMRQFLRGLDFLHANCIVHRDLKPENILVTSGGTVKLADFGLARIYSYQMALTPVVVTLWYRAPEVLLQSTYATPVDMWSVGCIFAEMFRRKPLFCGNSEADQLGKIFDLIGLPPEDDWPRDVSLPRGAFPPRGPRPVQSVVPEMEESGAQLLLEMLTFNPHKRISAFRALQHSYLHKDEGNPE
Sequence (P24385 whole entry, further chain): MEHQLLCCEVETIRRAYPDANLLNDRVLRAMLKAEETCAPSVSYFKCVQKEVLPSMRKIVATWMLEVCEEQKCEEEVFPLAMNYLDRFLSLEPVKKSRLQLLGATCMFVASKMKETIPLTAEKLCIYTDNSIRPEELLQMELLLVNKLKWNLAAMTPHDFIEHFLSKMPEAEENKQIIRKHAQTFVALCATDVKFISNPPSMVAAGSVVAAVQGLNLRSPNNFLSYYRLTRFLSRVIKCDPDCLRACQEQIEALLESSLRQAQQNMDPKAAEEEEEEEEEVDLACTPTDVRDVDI
Test: Inhibitory activity against Cyclin D1-cyclin-dependent kinase 4 by measuring the phosphorylation of RbING
Observation type: IC50 (nM)
All answers are understood in nM, so give the number only.

Sample answers from the record:
[[record]]
compound = "O=C1NC(=O)c2c1c1c3ccccc3[nH]c1c1sc3ccccc3c21"
observation_type = "IC50"
unit_annotation = "nM"
reading = 220

[[record]]
compound = "O=C1NC(O)c2c1c1c3ccccc3[nH]c1c1[nH]c3ccccc3c21 (centres undefined)"
observation_type = "IC50"
unit_annotation = "nM"
reading = 3830


# context switch: different compound, same IC50
Please fill in: IC50 reported for O=C1NC(=O)c2c1c1c3ccccc3ccc1c1[nH]c3ccccc3c21 = 45
